- test.system: S1P1 (Homo sapiens)
- Sequence (P21453 whole entry, species assumed): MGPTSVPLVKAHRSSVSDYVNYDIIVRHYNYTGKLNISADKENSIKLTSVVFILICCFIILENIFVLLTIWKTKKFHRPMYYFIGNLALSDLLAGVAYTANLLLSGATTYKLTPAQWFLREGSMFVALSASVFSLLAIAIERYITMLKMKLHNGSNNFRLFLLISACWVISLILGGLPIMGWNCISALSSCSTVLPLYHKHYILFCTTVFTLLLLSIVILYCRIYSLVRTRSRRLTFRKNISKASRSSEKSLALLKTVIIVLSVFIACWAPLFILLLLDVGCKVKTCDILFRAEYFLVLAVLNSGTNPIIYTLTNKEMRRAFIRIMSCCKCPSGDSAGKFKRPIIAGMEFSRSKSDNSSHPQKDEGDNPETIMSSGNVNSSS
- assay.notes: Receptor binding assay, [33P]sphingosine 1-phosphate competition, membranes of CHO cells expressing S1P1
- condition.set: 384 well plate; read-out: S1P1 Binding Ki [M] (384 well plate)
Where a name gives a salt, the structure may show the parent alone.
result.type: Ki (M)

P: Cc1ccccc1-c1ccc(-c2nc(-c3ccc([C@@H](C)N[C@H](C)C(=O)O)cc3)no2)cc1C(F)(F)F [Example 20, hydrochloride salt]
Q: Cc1ccccc1-c1ccc(-c2nc(-c3ccc(CN(C)[C@@H](C)C(=O)O)cc3)no2)cc1C(F)(F)F
// compare: P vs Q , metric Ki, want the smaller Indicate your choice by writing its label. P

###

- assay.notes: Pharmacokinetics from lymphopenia study (mouse)
- Type: in vivo
- condition.set: female, C57BL/6, brain/plasma, oral, 30 mg/kg, PK-PD (30 mpk), ratio of AUCz, read-out: Brain/plasma ratio: AUCZ (h*ng/ml)
result.type: Kp
Note: the reply should be a number with no unit written.

For this compound ( "Cc1ccccc1-c1ccc(-c2nc(-c3ccc(CN(C)C(C)(C)C(=O)O)c(F)c3)no2)cc1C(F)(F)F" ), measured Kp is 3.5

###

- test.system: S1P3 (Homo sapiens, UniProt Q99500)
- Sequence (Q99500 whole entry, species assumed): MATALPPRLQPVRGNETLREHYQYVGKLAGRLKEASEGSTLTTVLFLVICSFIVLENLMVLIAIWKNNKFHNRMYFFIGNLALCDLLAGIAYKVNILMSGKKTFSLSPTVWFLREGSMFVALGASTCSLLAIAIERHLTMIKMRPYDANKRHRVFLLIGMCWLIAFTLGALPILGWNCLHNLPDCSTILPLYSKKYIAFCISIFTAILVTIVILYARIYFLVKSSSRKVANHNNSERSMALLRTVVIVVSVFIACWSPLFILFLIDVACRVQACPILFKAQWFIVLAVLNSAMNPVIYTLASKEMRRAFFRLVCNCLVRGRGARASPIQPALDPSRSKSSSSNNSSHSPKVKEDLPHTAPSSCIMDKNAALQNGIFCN
- assay.notes: Receptor binding assay, [33P]sphingosine 1-phosphate competition, membranes of CHO cells expressing S1P3
- condition.set: 384 well plate; read-out: S1P3 Binding Ki [M] (384 well plate)
Where a name gives a salt, the structure may show the parent alone.
result.type: Ki (M)

{"columns": ["molecule", "display.unit", "readout.value"],
 "data": [
  ["Cc1ccccc1-c1ccc(-c2nc(-c3ccc(CN(C)[C@H](C)C(=O)O)cc3)no2)cc1C(F)(F)F [Example 71]", "M", "7.7e-07"],
  ["Cc1ccccc1-c1ccc(-c2nc(-c3ccc(CN[C@H](C(=O)O)C(C)C)cc3)no2)cc1C(F)(F)F [Example 55]", "M", "8.02e-07"],
  ["CC[C@@H](C(=O)O)N(C)Cc1cccc(-c2noc(-c3ccc(-c4ccccc4C)c(C(F)(F)F)c3)n2)c1 [Example 86]", "M", "5.55e-07"]
]}

P: Cc1ccccc1-c1ccc(-c2nc(-c3ccc(CN(C)[C@@H](CO)C(=O)O)c(F)c3)no2)cc1C(F)(F)F [Example 45, hydrochloride salt]
Q: COCc1cc(-c2nc(-c3ccc(CNC(C)(C)C(=O)O)c(F)c3)no2)ccc1-c1ccccc1C [Example 16, hydrochloride salt]
Of the two listed items, P and Q , which carries the larger Ki figure? Indicate your choice by writing its label. Q
(Q: 7.2e-07 M, P: 4.36e-07 M)

###

- test.system: S1P3 (Homo sapiens)
- assay.notes: Receptor binding assay, [33P]sphingosine 1-phosphate competition, membranes of CHO cells expressing S1P3
- condition.set: 384 well plate; read-out: S1P3 Binding Ki [M] (384 well plate)
Counter-ions that a name gives are not always drawn.
result.type: Ki (M)

A: CCN(Cc1ccc(-c2noc(-c3ccc(-c4ccccc4C)c(C(F)(F)F)c3)n2)cc1)[C@@H](C)C(=O)O [Example 89]
B: Cc1ccccc1-c1ccc(-c2nc(-c3ccc([C@H](C)NCC(=O)O)cc3)no2)cc1C(F)(F)F [Example 21, hydrochloride salt]
Of the two listed items, A and B , which carries the larger Ki figure? Indicate your choice by writing its label. A

I: Cc1ccccc1-c1ccc(-c2nc(-c3ccc([C@@H](C)N[C@H](C)C(=O)O)cc3)no2)cc1C(F)(F)F [Example 20, hydrochloride salt]
II: Cc1ccccc1-c1ccc(-c2nc(-c3ccc(CN[C@H](C(=O)O)[C@@H](C)O)cc3)no2)cc1C(F)(F)F [Example 61]
// compare: I vs II , metric Ki, want the smaller Indicate your choice by writing its label. II

Recorded values, source patent US9029405B2.
